The reported numbers originate from paper PMC5225183.

Test system: EF1α promoter
Details: ESC-derived neurons, 48 h exposure
Exercise: for every item that follows, state its recorded LOAEL Neurons EF1α.
Please respond with the number in µM and leave the unit unwritten.

Q: Entry [CH3][Hg][Cl] : reported LOAEL Neurons EF1α = ?
A: 5

Q: Entry COc1cc2ncnc(Nc3ccc(F)c(Cl)c3)c2cc1OCCCN1CCOCC1 : reported LOAEL Neurons EF1α = ?
A: 50

Q: Entry [CH3][Sn]([CH3])([CH3])[Cl] [Trimethyltin chloride] : reported LOAEL Neurons EF1α = ?
A: 0.05

----------
Exercise: for every item that follows, state its recorded LOAEL Neurons DNA.
Tested on: ESC-derived neurons
Settings: ESC-derived neurons, 48 h exposure, PI assay (cytotoxicity)
Please respond with the number in µM and leave the unit unwritten.

Q: Entry Nc1ccccc1NC(=O)c1ccc(CNC(=O)OCc2cccnc2)cc1 : reported LOAEL Neurons DNA = ?
A: 50

Q: Entry COC(=O)c1ccc2c(c1)NC(=O)/C2=C(\Nc1ccc(N(C)C(=O)CN2CCN(C)CC2)cc1)c1ccccc1 : reported LOAEL Neurons DNA = ?
A: 5

Q: Entry CCC[C@H](NC(=O)[C@@H]1[C@H]2CCC[C@H]2CN1C(=O)[C@@H](NC(=O)[C@@H](NC(=O)c1cnccn1)C1CCCCC1)C(C)(C)C)C(=O)C(=O)NC1CC1 : reported LOAEL Neurons DNA = ?
A: 50

Q: Entry CN(C)CCCN1c2ccccc2Sc2ccc(Cl)cc21 : reported LOAEL Neurons DNA = ?
A: 20

Q: Entry COC1=C2C[C@@H](C)C[C@H](OC)[C@H](O)[C@@H](C)/C=C(\C)[C@H](OC(N)=O)[C@@H](OC)/C=C\C=C(/C)C(=O)NC(=CC1=O)C2=O : reported LOAEL Neurons DNA = ?
A: 0.05

Q: Entry [CH3][Sn]([CH3])([CH3])[Cl] [Trimethyltin chloride] : reported LOAEL Neurons DNA = ?
A: 5

Q: Entry COc1cccc2c1C(=O)c1c(O)c3c(c(O)c1C2=O)C[C@@](O)(C(=O)CO)C[C@@H]3O[C@H]1C[C@H](N)[C@H](O)[C@H](C)O1 : reported LOAEL Neurons DNA = ?
A: 0.005

Q: Entry COc1cc2ncnc(Nc3ccc(F)c(Cl)c3)c2cc1OCCCN1CCOCC1 : reported LOAEL Neurons DNA = ?
A: 50

Q: Entry O=C(/C=C/c1cccc(S(=O)(=O)Nc2ccccc2)c1)NO : reported LOAEL Neurons DNA = ?
A: 50

Q: Entry CCCC(CCC)C(=O)O : reported LOAEL Neurons DNA = ?
A: 5000

Q: Entry [CH3][Hg][Cl] : reported LOAEL Neurons DNA = ?
A: 0.5

Q: Entry Cc1[nH]c2ccccc2c1CCNCc1ccc(/C=C/C(=O)NO)cc1 : reported LOAEL Neurons DNA = ?
A: 0.05

Q: Entry CC(C)NCC(O)COc1cccc2ccccc12 (centres unmarked) : reported LOAEL Neurons DNA = ?
A: 50

----------
Tested on: ESCs and ESC-derived neurons
Experiment: Dual luminescence reporter test system, all readouts in ESCs and ESC-derived neurons
PARAMETER_MEASURED: result in the dual luminescence reporter test system

- COMPOUND: "CC(C)Cc1ccc(C(C)C(=O)O)cc1 (stereo not drawn) [Ibuprofen]"
  TEST_VALUE: "negative"
- COMPOUND: "O=C(O)c1cccnc1 [Nicotinic acid]"
  TEST_VALUE: "negative"
- COMPOUND: "OC[C@@H](O)[C@@H](O)[C@H](O)[C@H](O)CO [D-mannitol]"
  TEST_VALUE: "negative"
- COMPOUND: "COc1ccc2[nH]c([S+]([O-])Cc3ncc(C)c(OC)c3C)nc2c1 (stereo not drawn) [Omeprazole]"
  TEST_VALUE: "negative"

----------
Tested on: Tubulin α1 (Tα1) promoter
Details: mouse
PARAMETER_MEASURED: LOAEL ESC Tα1

Q: Notebook entry, Tubulin α1 (Tα1) promoter assay: LOAEL ESC Tα1 of CC(C)(C)C(=O)C(Oc1ccc(Cl)cc1)n1cncn1 (stereo not shown) = ?
A: 50 µM

Q: Notebook entry, Tubulin α1 (Tα1) promoter assay: LOAEL ESC Tα1 of O=C1NS(=O)(=O)c2ccccc21 = ?
A: >50 µM

Q: Notebook entry, Tubulin α1 (Tα1) promoter assay: LOAEL ESC Tα1 of O=C(O)c1cccnc1 = ?
A: >50 µM

Q: Notebook entry, Tubulin α1 (Tα1) promoter assay: LOAEL ESC Tα1 of Nc1ccc(S(=O)(=O)Nc2ncccn2)cc1 = ?
A: >50 µM

----------
Test system: Tubulin α1 (Tα1) promoter
Experiment: cells
Conditions: ESC-derived neurons, 48 h exposure
Experimental: Dual luciferase expressing CGR8-2Luc cells were obtained by transduction of mouse ESC CGR8 cells with the 2K7 EFS-Renilla Luciferase (RLuc)/Talpha1-Firefly Luciferase (FLuc) vector as previously described (Suter et al. [2006], [2009]); EFS corresponds to the short promoter of the eukaryotic translation elongation factor 1 alpha (EF1α), and Talpha1 to the Tubulin α1 (Tα1) promoter. […] Luciferase activities were measured with a Dual-Luciferase™ Reporter system kit. […]
Sorting guide: entries reporting LOAEL Neurons Tα1 beneath 10 µM go in the t pile, the rest go in the f pile.

Q: Could you please tell me whether LOAEL Neurons Tα1 recorded for OC[C@@H](O)[C@@H](O)[C@H](O)[C@H](O)CO [D-mannitol] is less than 10 µM?
A: f

Q: Could you please tell me whether LOAEL Neurons Tα1 recorded for COc1cccc2c1C(=O)c1c(O)c3c(c(O)c1C2=O)C[C@@](O)(C(=O)CO)C[C@@H]3O[C@H]1C[C@H](N)[C@H](O)[C@H](C)O1 [Doxorubicin] is less than 10 µM?
A: t

Q: Could you please tell me whether LOAEL Neurons Tα1 recorded for C[C@]12CC[C@H](O)CC1=CC[C@@H]1[C@@H]2CC[C@]2(C)C(c3cccnc3)=CC[C@@H]12 [Abiraterone] is less than 10 µM?
A: t

Q: Could you please tell me whether LOAEL Neurons Tα1 recorded for COc1cc2ncnc(Nc3ccc(F)c(Cl)c3)c2cc1OCCCN1CCOCC1 [Gefitinib] is less than 10 µM?
A: f

Q: Could you please tell me whether LOAEL Neurons Tα1 recorded for COC1=C2C[C@@H](C)C[C@H](OC)[C@H](O)[C@@H](C)/C=C(\C)[C@H](OC(N)=O)[C@@H](OC)/C=C\C=C(/C)C(=O)NC(=CC1=O)C2=O [Geldanamycin] is less than 10 µM?
A: t

Q: Could you please tell me whether LOAEL Neurons Tα1 recorded for COc1ccc2[nH]c([S+]([O-])Cc3ncc(C)c(OC)c3C)nc2c1 (stereo not shown) [Omeprazole] is less than 10 µM?
A: f

----------
Test system: ESCs and ESC-derived neurons
Assay: Dual luminescence reporter test system, all readouts in ESCs and ESC-derived neurons
Exercise: for every item that follows, state its recorded Number of non-cytotoxic changes.
Keep the answer to the number alone.

Q: Entry O=C(O)c1cc[c]([Hg][Cl])cc1 : reported Number of non-cytotoxic changes = ?
A: 1

Q: Entry C[CH2][Hg][S]c1ccccc1C(=O)[O-].[Na+] : reported Number of non-cytotoxic changes = ?
A: 0

Q: Entry [Br][Hg][Br] [Mercury bromide] : reported Number of non-cytotoxic changes = ?
A: 1

Q: Entry CC(=O)[O][Hg][c]1ccccc1 [Phenylmercuric acetate] : reported Number of non-cytotoxic changes = ?
A: 0

----------
Exercise: for every item that follows, state its recorded LOAEL ESC Tα1.
Tested on: Tubulin α1 (Tα1) promoter
Settings: undifferentiated ESCs, 48 h exposure; lowest tested concentration with statistically significant decrease

Q: Entry [Br][Hg][Br] [Mercury bromide] : reported LOAEL ESC Tα1 = ?
A: 5 µM

Q: Entry COCCCOc1cc(C[C@@H](C[C@H](N)[C@@H](O)C[C@H](C(=O)NCC(C)(C)C(N)=O)C(C)C)C(C)C)ccc1OC : reported LOAEL ESC Tα1 = ?
A: >50 µM

Q: Entry Nc1ccccc1NC(=O)c1ccc(CNC(=O)OCc2cccnc2)cc1 : reported LOAEL ESC Tα1 = ?
A: 50 µM

Q: Entry COc1cc2ncnc(Nc3ccc(F)c(Cl)c3)c2cc1OCCCN1CCOCC1 : reported LOAEL ESC Tα1 = ?
A: 50 µM

Q: Entry C/C(O)=C(\C#N)C(=O)Nc1ccc(C(F)(F)F)cc1 [Teriflunomide] : reported LOAEL ESC Tα1 = ?
A: >50 µM

Q: Entry COCC(=O)O : reported LOAEL ESC Tα1 = ?
A: >50 µM

Q: Entry CCCc1nn(C)c2c(=O)[nH]c(-c3cc(S(=O)(=O)N4CCN(C)CC4)ccc3OCC)nc12 : reported LOAEL ESC Tα1 = ?
A: >50 µM

Q: Entry CC(C)Cc1ccc(C(C)C(=O)O)cc1 (stereo not drawn) : reported LOAEL ESC Tα1 = ?
A: >50 µM

Q: Entry N[C@@H](CC(=O)N1CCn2c(nnc2C(F)(F)F)C1)Cc1cc(F)c(F)cc1F : reported LOAEL ESC Tα1 = ?
A: >50 µM
